biological target: human cyclin D1-CDK4 (Homo sapiens); experiment: FlashPlate kinase assay, cyclin D1-CDK4; assay type: biochemical; conditions: Rb protein substrate, 1 μM ATP, 33P-ATP, 30 minutes room temperature; read-out: CDK4 IC50
Sequence (P11802 whole entry): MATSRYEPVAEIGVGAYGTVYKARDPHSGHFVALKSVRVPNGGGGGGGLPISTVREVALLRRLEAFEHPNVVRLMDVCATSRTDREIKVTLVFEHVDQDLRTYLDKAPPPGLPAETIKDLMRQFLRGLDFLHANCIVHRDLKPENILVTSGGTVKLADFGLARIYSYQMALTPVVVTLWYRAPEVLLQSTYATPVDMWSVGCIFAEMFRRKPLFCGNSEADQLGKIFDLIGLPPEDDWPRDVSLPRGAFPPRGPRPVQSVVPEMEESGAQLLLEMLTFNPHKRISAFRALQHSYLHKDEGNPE
Sequence (P24385 whole entry partner): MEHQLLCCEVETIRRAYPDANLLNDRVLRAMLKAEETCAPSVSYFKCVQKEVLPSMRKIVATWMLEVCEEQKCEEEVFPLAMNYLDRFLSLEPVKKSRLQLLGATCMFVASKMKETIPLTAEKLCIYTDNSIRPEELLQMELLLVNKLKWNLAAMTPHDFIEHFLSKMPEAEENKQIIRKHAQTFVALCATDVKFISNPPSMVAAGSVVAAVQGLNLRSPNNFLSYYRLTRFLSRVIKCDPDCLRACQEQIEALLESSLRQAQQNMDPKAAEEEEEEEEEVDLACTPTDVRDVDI
For each of the compounds below, state its pIC50.
One number for each entry, as −log10 of the molar value.

I have 5 compounds here; please give me pIC50 for each one.
1. Nc1nc(Nc2ccc(N3CCC(N4CCOCC4)CC3)cc2)sc1C(=O)c1cccc([N+](=O)[O-])c1 [Example 105]
2. Nc1nc(Nc2ccc(N3CCC(N4CCOCC4)CC3)cc2)sc1C(=O)c1cccc(O)c1 [Example 103]
3. Nc1nc(Nc2ccc(N3CCC(N4CCCCC4)CC3)cc2)sc1C(=O)c1ccc(F)cc1 [Example 61]
4. Cc1ccc(C(=O)c2sc(Nc3ccc(N4CCC(N5CCCC5)CC4)cc3)nc2N)cc1F [Example 121]
5. Nc1nc(Nc2ccc(N3CCC(N4CCCC(O)C4)CC3)cc2)sc1C(=O)c1ccc2c(c1)OCO2 (centres unmarked) [Example 37]

Ans.
1. 7.41
2. 7.44
3. 7.15
4. 7.96
5. 5.45

I have 2 compounds here; please give me pIC50 for each one.
1. CCOc1cccc(C(=O)c2sc(Nc3ccc(N4CCC(N5CCCC5)CC4)cc3)nc2N)c1 [Example 118]
2. Nc1nc(Nc2ccc(N3CCC(N4CCCC4)CC3)cc2)sc1C(=O)c1ccc(Cl)c(Cl)c1 [Example 69]

Ans.
1. 7.51
2. 6.99

Consider CCNC1CCN(c2ccc(Nc3nc(N)c(C(=O)c4cccc(OC)c4)s3)cc2)C1 (centres unmarked) [Example 134] . Its measured pIC50 is 7.34

---

target: human cyclin D1-CDK4 (Homo sapiens); experiment: FlashPlate kinase assay, cyclin D1-CDK4; format: biochemical; details: Rb protein substrate, 1 μM ATP, 33P-ATP, 30 minutes room temperature; read-out: CDK4 IC50
pIC50: −log10 of the molar value.
Assign Satisfied to entries whose pIC50 meets or exceeds 7; assign Not satisfied to the rest.

Previously resolved entries follow.
CN(C)C1CCN(c2ccc(Nc3nc(N)c(C(=O)c4cccc([N+](=O)[O-])c4)s3)cc2)CC1 ... Satisfied
N#Cc1ccc(C(=O)c2sc(Nc3ccc(N4CCC(N5CCCC(O)C5)CC4)cc3)nc2N)cc1 (stereo not shown) ... Not satisfied
CCc1cccc(C(=O)c2sc(Nc3ccc(N4CCC(N(C)C)CC4)cc3)nc2N)c1 ... Satisfied

Qu. Test whether the compound Nc1nc(Nc2ccc(N3CCC(N4CCCC(O)C4)CC3)cc2)sc1C(=O)c1cccc(O)c1 (stereo not shown) records pIC50 of 7 or higher.
Ans. Satisfied

Qu. Test whether the compound "Nc1nc(Nc2ccc(N3CCC(N4CCCCC4)CC3)cc2)sc1C(=O)c1ccc(C(=O)O)cc1" records pIC50 of 7 or higher.
Ans. Not satisfied

---

target: human cyclin D1-CDK4 (Homo sapiens); test: FlashPlate kinase assay, cyclin D1-CDK4; type: biochemical; settings: Rb protein substrate, 1 μM ATP, 33P-ATP, 30 minutes room temperature; read-out: CDK4 IC50
readout.label: pIC50
Give bare numbers, as −log10 of the molar value.

Sample records with pIC50:
CN(C)C1CCN(c2ccc(Nc3nc(N)c(C(=O)c4ccc(O)cc4)s3)cc2)CC1 [Example 46] ... 7.26
CN(C)C1CCN(c2ccc(Nc3nc(N)c(C(=O)c4cccc(F)c4)s3)cc2)CC1 [Example 41] ... 8.70
Nc1nc(Nc2ccc(N3CCC(N4CCCCC4)CC3)cc2)sc1C(=O)c1cccc(O)c1 [Example 65] ... 7.74
COc1cccc(C(=O)c2sc(Nc3ccc(N4CCC(N5CCOCC5)CC4)cc3)nc2N)c1 [Example 102] ... 7.54
Cc1cccc(C(=O)c2sc(Nc3ccc(N4CCC(N5CCCC5)CC4)cc3)nc2N)c1 [Example 109] ... 7.85

I have 5 molecules here; please give me pIC50 for each one.
1. Nc1nc(Nc2ccc(N3CCC(N4CCCC(O)C4)CC3)cc2)sc1C(=O)c1ccc(Cl)c([N+](=O)[O-])c1 (stereo not shown) [Example 78]
2. COc1ccc(C(=O)c2sc(Nc3ccc(N4CCC(N(C)C)CC4)cc3)nc2N)cc1[N+](=O)[O-] [Example 113]
3. COc1ccc(C(=O)c2sc(Nc3ccc(N4CCC(N5CCCCC5)CC4)cc3)nc2N)cc1F [Example 31]
4. Nc1nc(Nc2ccc(N3CCC(N4CCCC4)CC3)cc2)sc1C(=O)c1ccc(Cl)cc1 [Example 67]
5. COc1ccc(C(=O)c2sc(Nc3ccc(N4CCC(N5CCOCC5)CC4)cc3)nc2N)cc1[N+](=O)[O-] [Example 106]

Ans.
6.61
7.35
7.55
6.77
7.28

I have 4 molecules here; please give me pIC50 for each one.
1. Nc1nc(Nc2ccc(N3CCC(N4CCCC(O)C4)CC3)cc2)sc1C(=O)c1ccc([N+](=O)[O-])cc1 (stereo not shown) [Example 52]
2. CN(C)C1CCN(c2ccc(Nc3nc(N)c(C(=O)c4ccc(C#N)cc4)s3)cc2)CC1 [Example 47]
3. N#Cc1cccc(C(=O)c2sc(Nc3ccc(N4CCC(N5CCCC5)CC4)cc3)nc2N)c1 [Example 72]
4. CN(C)C1CCN(c2ccc(Nc3nc(N)c(C(=O)c4cccc(C5CC5)c4)s3)cc2)CC1 [Example 120]

Ans.
1. 7.15
2. 6.73
3. 7.77
4. 7.64

I have 5 molecules here; please give me pIC50 for each one.
1. Nc1nc(Nc2ccc(N3CCC(N4CCCCC4)CC3)cc2)sc1C(=O)c1cccc(F)c1 [Example 30]
2. N#Cc1cccc(C(=O)c2sc(Nc3ccc(N4CCC(N5CCOCC5)CC4)cc3)nc2N)c1 [Example 104]
3. Nc1nc(Nc2ccc(N3CCC(N4CCCC4)CC3)cc2)sc1C(=O)c1cccc(O)c1 [Example 96]
4. CCc1cccc(C(=O)c2sc(Nc3ccc(N4CCC(N5CCCC5)CC4)cc3)nc2N)c1 [Example 114]
5. Nc1nc(Nc2ccc(N3CCC(N4CCCCC4)CC3)cc2)sc1C(=O)c1ccc(Cl)c([N+](=O)[O-])c1 [Example 62]

Ans.
7.85
7.51
7.43
7.92
6.56

I have 6 molecules here; please give me pIC50 for each one.
1. Nc1nc(Nc2ccc(N3CCC(N4CCCCC4)CC3)cc2)sc1C(=O)c1ccc2c(c1)OCO2 [Example 32]
2. CN(C)C1CCN(c2ccc(Nc3nc(N)c(C(=O)c4ccc5c(c4)OCO5)s3)cc2)CC1 [Example 43]
3. Nc1nc(Nc2ccc(N3CCC(N4CCCC(O)C4)CC3)cc2)sc1C(=O)c1ccc(F)cc1 (stereo not shown) [Example 77]
4. N#Cc1cccc(C(=O)c2sc(Nc3ccc(N4CCC(N5CCCCC5)CC4)cc3)nc2N)c1 [Example 64]
5. CN(C)C1CCN(c2ccc(Nc3nc(N)c(C(=O)c4ccc(F)c(F)c4)s3)cc2)CC1 [Example 84]
6. N#Cc1cccc(C(=O)c2sc(Nc3ccc(N4CCC(N5CCCC(O)C5)CC4)cc3)nc2N)c1 (stereo not shown) [Example 80]

Ans.
[7.54, 8.15, 6.95, 7.82, 6.91, 7.77]

I have 6 molecules here; please give me pIC50 for each one.
1. Nc1nc(Nc2ccc(N3CCC(N4CCCCC4)CC3)cc2)sc1C(=O)c1ccc(Cl)cc1 [Example 58]
2. CCCc1cc(C(=O)c2sc(Nc3ccc(N4CCC(N5CCCC5)CC4)cc3)nc2N)ccc1O [Example 123]
3. Cc1cccc(C(=O)c2sc(Nc3ccc(N4CCC(N5CCCCC5)CC4)cc3)nc2N)c1 [Example 111]
4. COc1cccc(C(=O)c2sc(Nc3ccc(N4CCC(N5CCCCC5)CC4)cc3)nc2N)c1 [Example 34]
5. CCc1cccc(C(=O)c2sc(Nc3ccc(N4CCC(N5CCCCC5)CC4)cc3)nc2N)c1 [Example 117]
6. CN(C)C1CCN(c2ccc(Nc3nc(N)c(C(=O)c4ccc(Cl)cc4)s3)cc2)CC1 [Example 83]

Ans.
[7.35, 7.85, 7.60, 5.44, 8.05, 6.88]
